# tested.on: human VR1 (Homo sapiens)
# Construct: expressed in transfected cells
# assay.comment: capsaicin-induced Ca2+ influx in the human VR1-transfected CHO cell line (Assay 1)
# Assay type: cell-based
# condition.summary: Table 2; 10 nM capsaicin, human VR1-CHOluc9aeq cells; read-out: activity class
pIC50: −log10 of the molar value.
test.readout: pIC50

molecule | result
O=C(NCc1ccc(Cl)c(Cl)c1)Nc1cccc2c1CC(O)CC2 (centres unmarked) | > 7.00
CCOC(=O)Cc1ccc(NC(=O)Nc2cccc3c2CC(O)CC3)cc1 (centres unmarked) | 6.30 to 7.00
O=C(NCc1ccc(Cl)cc1Cl)Nc1cccc2c1CC(O)CC2 (centres unmarked) | > 7.00
N#CCc1ccc(NC(=O)Nc2cccc3c2CC(O)CC3)cc1 (centres unmarked) | 6.30 to 7.00
COc1cc(OC)c(CNC(=O)Nc2cccc3c2CC(O)CC3)c(OC)c1 (centres unmarked) | 6.00 to 6.30

* * *

Item-by-item account of pIC50
# tested.on: human VR1 (Homo sapiens, UniProt Q8NER1)
# Construct: expressed in transfected cells
# Sequence (Q8NER1 whole entry): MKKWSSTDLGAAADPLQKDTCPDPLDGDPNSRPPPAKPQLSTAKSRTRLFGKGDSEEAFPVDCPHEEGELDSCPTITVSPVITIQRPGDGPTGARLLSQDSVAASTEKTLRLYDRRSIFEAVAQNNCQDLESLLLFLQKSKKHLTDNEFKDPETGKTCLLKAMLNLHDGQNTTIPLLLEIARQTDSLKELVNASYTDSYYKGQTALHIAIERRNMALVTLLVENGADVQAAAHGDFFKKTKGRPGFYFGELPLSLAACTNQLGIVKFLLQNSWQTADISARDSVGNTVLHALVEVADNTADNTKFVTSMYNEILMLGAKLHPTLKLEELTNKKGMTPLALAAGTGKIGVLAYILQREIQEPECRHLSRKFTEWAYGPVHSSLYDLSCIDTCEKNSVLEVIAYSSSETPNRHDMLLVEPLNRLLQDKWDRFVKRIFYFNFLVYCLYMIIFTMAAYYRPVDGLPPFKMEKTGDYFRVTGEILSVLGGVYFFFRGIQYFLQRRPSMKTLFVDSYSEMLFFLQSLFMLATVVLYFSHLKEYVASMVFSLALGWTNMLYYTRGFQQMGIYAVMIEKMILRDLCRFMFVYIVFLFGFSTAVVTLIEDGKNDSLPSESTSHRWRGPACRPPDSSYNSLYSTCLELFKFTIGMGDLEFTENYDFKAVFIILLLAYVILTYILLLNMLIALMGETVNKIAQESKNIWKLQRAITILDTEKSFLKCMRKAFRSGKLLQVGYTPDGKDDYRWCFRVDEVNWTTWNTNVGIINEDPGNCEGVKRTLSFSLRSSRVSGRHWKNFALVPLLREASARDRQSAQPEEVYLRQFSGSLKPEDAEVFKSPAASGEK
# assay.comment: capsaicin-induced Ca2+ influx in the human VR1-transfected CHO cell line (Assay 1)
# Type: cell-based
# condition.summary: Table 3; 10 nM capsaicin, human VR1-CHOluc9aeq cells; read-out: activity class
pIC50: −log10 of the molar value.

compound | pIC50
Cc1cc(NC(=O)Nc2cccc3c2CC(O)CC3)ccc1F (stereo not shown) | > 7.00
COc1ccc(NC(=O)Nc2cccc3c2CC(O)CC3)cc1Cl (stereo not shown) | > 7.00
O=C(Nc1cccc(I)c1)Nc1cccc2c1CC(O)CC2 (stereo not shown) | > 7.00
O=C(Nc1cccc(OC(F)(F)F)c1)Nc1cccc2c1CC(O)CC2 (stereo not shown) | > 7.00
COc1ccc(NC(=O)Nc2cccc3c2CC(O)CC3)cc1O (stereo not shown) | 6.00 to 6.30
O=C(Nc1cccc(Br)c1)Nc1cccc2c1CC(O)CC2 (stereo not shown) | > 7.00
COc1ccc(NC(=O)Nc2cccc3c2CC(O)CC3)cc1F (stereo not shown) | > 7.00
COc1cc(NC(=O)Nc2cccc3c2CC(O)CC3)cc(C(F)(F)F)c1 (stereo not shown) | > 7.00
O=C(Nc1ccccc1Br)Nc1cccc2c1CC(O)CC2 (stereo not shown) | 6.30 to 7.00
O=C(Nc1cccc(F)c1)Nc1cccc2c1CC(O)CC2 (stereo not shown) | 6.30 to 7.00

* * *

# melting point listing for each entry below
test.readout: melting point

molecule | result
O=C(Nc1ccccc1Cl)Nc1cccc2c1CC(O)CC2 (stereo not drawn) [Example 2-2] | 197 to 199 °C
O=C(Nc1ccc(Br)cc1)Nc1cccc2c1CC(O)CC2 (stereo not drawn) [Example 2-16] | 237 to 239 °C
O=C(Nc1ccc(Cl)c(C(F)(F)F)c1)Nc1cccc2c1CC(O)CC2 (stereo not drawn) [Example 1-1] | 227 to 228 °C
COc1ccc(NC(=O)Nc2cccc3c2CC(O)CC3)cc1 (stereo not drawn) [Example 2-6] | 213 to 215 °C
O=C(Nc1ccc(Cl)c(Cl)c1)Nc1cccc2c1CC(O)CC2 (stereo not drawn) [Example 2-17] | 234 to 235 °C
Cc1ccccc1CNC(=O)Nc1cccc2c1CC(O)CC2 (stereo not drawn) [Example 2-23] | 224 to 226 °C
O=C(NCc1cccc(F)c1)Nc1cccc2c1CC(O)CC2 (stereo not drawn) [Example 2-28] | 193 to 194 °C
O=C(Nc1ccc(Cl)c(C(F)(F)F)c1)Nc1ccc(Br)c2c1CC(O)CC2 (stereo not drawn) [Example 2-38] | 234 to 235 °C
O=C(Nc1ccc(Cl)cc1)Nc1cccc2c1CC(O)CC2 (stereo not drawn) [Example 2-4] | 229 to 231 °C
O=C(NCc1ccc(F)cc1)Nc1cccc2c1CC(O)CC2 (stereo not drawn) [Example 2-29] | 218 to 221 °C
Cc1cccc(NC(=O)Nc2cccc3c2CC(O)CC3)c1 (stereo not drawn) [Example 2-18] | 198 to 200 °C
CCOC(=O)c1ccccc1NC(=O)Nc1cccc2c1CC(O)CC2 (stereo not drawn) [Example 2-10] | 178 to 180 °C
O=C(Nc1cccc(Oc2ccccc2)c1)Nc1cccc2c1CC(O)CC2 (stereo not drawn) [Example 5-10] | 194 to 195 °C
O=C(Nc1cccc(C(F)(F)F)c1)Nc1cccc2c1CC(O)CC2 (stereo not drawn) [Example 2-8] | 227 to 228 °C
CC1(O)CCc2cccc(NC(=O)Nc3ccc(Cl)c(C(F)(F)F)c3)c2C1 (stereo not drawn) [Example 2-41] | 213 °C
CCOC(=O)c1ccc(NC(=O)Nc2cccc3c2CC(O)CC3)cc1 (stereo not drawn) [Example 2-12] | 204 to 206 °C
O=C(Nc1ccccc1Br)Nc1cccc2c1CC(O)CC2 (stereo not drawn) [Example 5-4] | 196 to 197 °C
O=C(Nc1cccc(F)c1)Nc1cccc2c1CC(O)CC2 (stereo not drawn) [Example 5-3] | 204 to 205 °C
O=C(NCc1ccccc1Cl)Nc1cccc2c1CC(O)CC2 (stereo not drawn) [Example 2-30] | 213 to 215 °C
CC(C)c1ccc(NC(=O)Nc2cccc3c2CC(O)CC3)cc1 (stereo not drawn) [Example 2-19] | 186 to 188 °C
O=C(Nc1ccc(Oc2ccccc2)cc1)Nc1cccc2c1CC(O)CC2 (stereo not drawn) [Example 2-20] | 188 to 190 °C
COc1cccc(NC(=O)Nc2cccc3c2CC(O)CC3)c1 (stereo not drawn) [Example 2-5] | 187 to 189 °C
O=C(Nc1ccc(C(F)(F)F)cc1)Nc1cccc2c1CC(O)CC2 (stereo not drawn) [Example 2-9] | 222 to 224 °C
CCNC(=O)Nc1cccc2c1CC(O)CC2 (stereo not drawn) [Example 2-33] | 216 to 217 °C
O=C(NCc1ccccc1F)Nc1cccc2c1CC(O)CC2 (stereo not drawn) [Example 2-27] | 184 to 187 °C
O=C(Nc1cccc2c1CC(O)CC2)Nc1cccc2ccccc12 (stereo not drawn) [Example 2-13] | 250 to 252 °C
Cc1ccc(NC(=O)Nc2ccc(Cl)c(C(F)(F)F)c2)c2c1CCC(O)C2 (stereo not drawn) [Example 2-39] | 219 to 220 °C
O=C(NCc1ccccc1)Nc1cccc2c1CC(O)CC2 (stereo not drawn) [Example 2-22] | 198 to 200 °C
O=C(Nc1cccc(I)c1)Nc1cccc2c1CC(O)CC2 (stereo not drawn) [Example 5-13] | 226 to 228 °C
O=C(Nc1cccc(OC(F)(F)F)c1)Nc1cccc2c1CC(O)CC2 (stereo not drawn) [Example 5-11] | 203 to 204 °C
O=C(Nc1ccccc1C(F)(F)F)Nc1cccc2c1CC(O)CC2 (stereo not drawn) [Example 2-7] | 217 to 219 °C
Cc1ccc(CNC(=O)Nc2cccc3c2CC(O)CC3)cc1 (stereo not drawn) [Example 2-26] | 230 to 232 °C
O=C(Nc1ccc(OC(F)(F)F)cc1)Nc1cccc2c1CC(O)CC2 (stereo not drawn) [Example 5-1] | 198 to 200 °C
O=C(Nc1ccccc1)Nc1cccc2c1CC(O)CC2 (stereo not drawn) [Example 2-34] | 198 to 199 °C
CN(C)c1ccc(NC(=O)Nc2cccc3c2CC(O)CC3)cc1 (stereo not drawn) [Example 2-21] | 206 to 207 °C
COc1ccc(CNC(=O)Nc2cccc3c2CC(O)CC3)cc1 (stereo not drawn) [Example 2-31] | 209 to 211 °C
O=C(Nc1ccc(F)cc1)Nc1cccc2c1CC(O)CC2 (stereo not drawn) [Example 2-15] | 214 to 216 °C
O=C(Nc1cccc(Cl)c1)Nc1cccc2c1CC(O)CC2 (stereo not drawn) [Example 2-3] | 216 to 218 °C
O=C(Nc1ccc2ccccc2c1)Nc1cccc2c1CC(O)CC2 (stereo not drawn) [Example 2-14] | 212 to 214 °C

* * *

# tested.on: human VR1 (Homo sapiens, UniProt Q8NER1)
# Construct: expressed in transfected cells
# assay.comment: capsaicin-induced Ca2+ influx in the human VR1-transfected CHO cell line (Assay 1)
# Format: cell-based
# condition.summary: Table 2; 10 nM capsaicin, human VR1-CHOluc9aeq cells; read-out: activity class
test.readout: IC50

compound | tested.on | result
O=C(NCc1ccc(SC(F)(F)F)cc1)Nc1cccc2c1CC(O)CC2 (stereo not drawn) [Example 4-45] | human VR1 (Homo sapiens, UniProt Q8NER1) | < 100 nM
O=C(NCc1cccc(OC(F)(F)F)c1)Nc1cccc2c1CC(O)CC2 (stereo not drawn) [Example 4-29] | human VR1 (Homo sapiens, UniProt Q8NER1) | < 100 nM
O=C(NCc1c(F)cccc1F)Nc1cccc2c1CC(O)CC2 (stereo not drawn) [Example 4-28] | human VR1 (Homo sapiens, UniProt Q8NER1) | 500 to 1000 nM
O=C(NCc1ccc(OC(F)(F)F)cc1)Nc1cccc2c1CC(O)CC2 (stereo not drawn) [Example 4-17] | human VR1 (Homo sapiens, UniProt Q8NER1) | < 100 nM
O=C(NCCc1ccc(Cl)cc1)Nc1cccc2c1C[C@@H](O)CC2 [Example 4-54] | human VR1 (Homo sapiens, UniProt Q8NER1) | < 100 nM
CC(NC(=O)Nc1cccc2c1CC(O)CC2)c1ccccc1 (stereo not drawn) [Example 4-48] | human VR1 (Homo sapiens, UniProt Q8NER1) | 100 to 500 nM
O=C(NCc1ccc(C(=O)O)cc1)Nc1cccc2c1CC(O)CC2 (stereo not drawn) [Example 4-30] | human VR1 (Homo sapiens, UniProt Q8NER1) | 500 to 1000 nM
CC(NC(=O)Nc1cccc2c1CC(O)CC2)c1ccc(F)cc1 (stereo not drawn) [Example 4-41] | human VR1 (Homo sapiens, UniProt Q8NER1) | 100 to 500 nM
O=C(Nc1ccc(OC(F)(F)F)cc1)Nc1cccc2c1CC(O)CC2 (stereo not drawn) [Example 4-40] | human VR1 (Homo sapiens, UniProt Q8NER1) | < 100 nM

The measured values listed here are drawn from patent US7612113B2.
